Entries annotated with measured IR/IGF-1R ratio comparison
# TESTED ON: T1, soluble human insulin receptor-immunoglobulin heavy chain chimera (sIR-Fc; Bass et al., 1996) (human), P06213
# T1 chain: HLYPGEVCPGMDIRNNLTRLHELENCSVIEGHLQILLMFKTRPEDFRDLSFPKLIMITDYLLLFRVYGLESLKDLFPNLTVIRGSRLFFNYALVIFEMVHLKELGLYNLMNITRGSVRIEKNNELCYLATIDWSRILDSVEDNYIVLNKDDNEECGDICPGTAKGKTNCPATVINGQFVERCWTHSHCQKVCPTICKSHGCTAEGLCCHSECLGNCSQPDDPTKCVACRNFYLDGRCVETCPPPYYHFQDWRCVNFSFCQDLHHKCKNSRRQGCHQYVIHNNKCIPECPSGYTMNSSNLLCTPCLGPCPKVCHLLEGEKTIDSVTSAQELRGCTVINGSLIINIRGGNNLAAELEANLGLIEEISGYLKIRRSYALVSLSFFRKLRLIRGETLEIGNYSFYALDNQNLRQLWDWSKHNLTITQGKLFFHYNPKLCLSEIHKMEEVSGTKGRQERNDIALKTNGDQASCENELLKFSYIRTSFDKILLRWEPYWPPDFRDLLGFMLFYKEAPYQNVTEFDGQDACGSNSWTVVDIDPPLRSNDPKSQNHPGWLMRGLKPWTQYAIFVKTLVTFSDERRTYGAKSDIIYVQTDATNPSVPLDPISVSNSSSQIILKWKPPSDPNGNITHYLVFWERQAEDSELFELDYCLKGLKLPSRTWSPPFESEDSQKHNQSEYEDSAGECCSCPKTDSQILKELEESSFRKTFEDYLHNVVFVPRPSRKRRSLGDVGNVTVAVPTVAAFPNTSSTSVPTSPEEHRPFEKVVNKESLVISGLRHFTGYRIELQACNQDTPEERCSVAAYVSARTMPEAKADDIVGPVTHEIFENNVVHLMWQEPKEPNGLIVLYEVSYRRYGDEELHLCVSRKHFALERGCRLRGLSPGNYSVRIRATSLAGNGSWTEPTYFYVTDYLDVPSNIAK
# EXPERIMENT SUMMARY: phage ELISA
No end group written: not given here.
// keep it numeric: no unit symbol after the value

Please review the following examples before continuing.
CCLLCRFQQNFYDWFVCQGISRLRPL (modifications not checked) [H2CA-2-B4-IGFR]; 0.3
CMMXDGFYAGLGCLLTAGEGR (not fully specified; printed as CMM.DGFYAGLGCLLTAGEGR; X: residue not identified in the source; cysteine pairing not given here) [20E2B-3-C11-IGFR]; 0.1
RCGRWXAEMGAGDDPFYHKLSELVCG (not fully specified; X: residue not identified in the source; cysteine pairing not given here) [B6Hα-2-C4-IR]; 0.1

Could you now consider this next binder?
Field request: IR/IGF-1R ratio comparison | item: VVTPVNFYRALEALVRGXRLG (not fully specified; printed as VVTPVNFYRALEALVRG.RLG; X: residue not identified in the source) [20E2B-2-B11-IGFR]
0.1
